Hey, just so you know, these numbers are from the supplement of paper PMC6555819.

System: FXR:RXRa (NR concentration 270 nM, RXRa partner concentration 90 nM)
methodDescription: PBM binding z-score (relative to random genomic background probes); higher = stronger binding; sequences stand for … in GC…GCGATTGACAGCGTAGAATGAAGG
Would you mind labelling by PBM binding z-score? At or over 4 is met, under is not met.

Previously resolved entries follow.
| macromoleculeSequence | labelClass |
| --- | --- |
| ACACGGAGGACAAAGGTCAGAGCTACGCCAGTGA | met |
| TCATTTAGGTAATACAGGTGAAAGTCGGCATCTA | not met |
| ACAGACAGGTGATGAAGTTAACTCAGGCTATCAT | not met |
| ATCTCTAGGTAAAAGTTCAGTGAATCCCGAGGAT | not met |

Now take the following sequence into account.
input: Hi team, for `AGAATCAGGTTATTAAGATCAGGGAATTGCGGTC` , is the recorded PBM binding z-score at or above 4?
output: not met

###

Tested on: PPARg:RXRa DBDmut IVT, anti-RXR (DBD mutation: RXRa K156A/R161A, NR concentration 270 nM, RXRa partner concentration 90 nM)
methodDescription: PBM binding z-score (relative to random genomic background probes); higher = stronger binding; sequences stand for … in GC…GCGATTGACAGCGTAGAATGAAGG
property: PBM binding z-score
Note: the reply should be a number with no unit written.

Check out these entries, answers already filled in.
| macromoleculeSequence | PBM binding z-score |
| --- | --- |
| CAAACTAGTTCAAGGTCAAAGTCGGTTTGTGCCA | 2.12 |
| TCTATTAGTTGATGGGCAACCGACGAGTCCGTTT | 2.03 |
| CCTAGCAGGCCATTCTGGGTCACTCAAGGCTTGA | 3.36 |
| ATCGAAAGGTCGTGAGGTGAGTATGCAGAAAGGC | 0.289 |
| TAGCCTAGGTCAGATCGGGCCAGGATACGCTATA | -0.033 |

input: Given the sequence `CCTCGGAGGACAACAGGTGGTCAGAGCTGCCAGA` , what is its reported PBM binding z-score?
output: -0.455

###

Some sequences, each annotated with its measured PBM binding z-score.
Tested on: PXR homodimer (NR concentration 270 nM)
methodDescription: PBM binding z-score (relative to random genomic background probes); higher = stronger binding; sequences stand for … in GC…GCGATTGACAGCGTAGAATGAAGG
Note: the reply should be a number with no unit written.

| macromoleculeSequence | PBM binding z-score |
| --- | --- |
| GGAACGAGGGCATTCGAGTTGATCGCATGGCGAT | 1.47 |

input: Given the sequence `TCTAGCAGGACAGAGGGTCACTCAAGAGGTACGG` , what is its reported PBM binding z-score?
output: -0.392

input: Given the sequence `TGAATGAGGTTATAAGATCAGGTAACGTTGCAAA` , what is its reported PBM binding z-score?
output: 0.0498

input: Given the sequence `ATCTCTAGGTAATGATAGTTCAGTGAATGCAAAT` , what is its reported PBM binding z-score?
output: 0.747

input: Given the sequence `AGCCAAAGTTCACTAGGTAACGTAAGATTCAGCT` , what is its reported PBM binding z-score?
output: 2.4

input: Given the sequence `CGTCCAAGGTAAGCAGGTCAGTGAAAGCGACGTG` , what is its reported PBM binding z-score?
output: -0.446

input: Given the sequence `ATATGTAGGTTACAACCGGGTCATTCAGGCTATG` , what is its reported PBM binding z-score?
output: 1.71

input: Given the sequence `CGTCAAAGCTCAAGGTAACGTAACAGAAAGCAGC` , what is its reported PBM binding z-score?
output: -0.303

###

Test system: RARb:RXRa (NR concentration 270 nM, RXRa partner concentration 90 nM)
methodDescription: PBM binding z-score (relative to random genomic background probes); higher = stronger binding; sequences stand for … in GC…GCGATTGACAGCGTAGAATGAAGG
Would you mind labelling by PBM binding z-score? At or over 0.7 is satisfied, under is not satisfied.

input: Hi team, for `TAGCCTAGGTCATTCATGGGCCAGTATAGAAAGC` , is the recorded PBM binding z-score at or above 0.7?
output: satisfied

input: Hi team, for `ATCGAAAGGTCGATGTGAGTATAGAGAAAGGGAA` , is the recorded PBM binding z-score at or above 0.7?
output: satisfied

input: Hi team, for `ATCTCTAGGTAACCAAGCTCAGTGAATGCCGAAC` , is the recorded PBM binding z-score at or above 0.7?
output: not satisfied

input: Hi team, for `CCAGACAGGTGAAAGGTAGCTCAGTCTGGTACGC` , is the recorded PBM binding z-score at or above 0.7?
output: satisfied

input: Hi team, for `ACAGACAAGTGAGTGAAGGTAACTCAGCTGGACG` , is the recorded PBM binding z-score at or above 0.7?
output: not satisfied

###

Test system: THRa homodimer (NR concentration 90 nM)
methodDescription: PBM binding z-score (relative to random genomic background probes); higher = stronger binding; sequences stand for … in GC…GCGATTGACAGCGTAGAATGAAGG
Some sequences, each annotated with its measured PBM binding z-score.
Note: the reply should be a number with no unit written.

Check out these entries, answers already filled in.
| macromoleculeSequence | testedSystem | PBM binding z-score |
| --- | --- | --- |
| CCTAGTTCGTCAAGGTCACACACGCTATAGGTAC | THRa homodimer (NR concentration 90 nM) | 4.47 |
| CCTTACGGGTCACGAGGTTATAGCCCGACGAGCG | THRa homodimer (NR concentration 90 nM) | 1.07 |
| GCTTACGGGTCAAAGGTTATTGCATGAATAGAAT | THRa homodimer (NR concentration 90 nM) | 0.27 |
| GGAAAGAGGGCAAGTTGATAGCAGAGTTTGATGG | THRa homodimer (NR concentration 90 nM) | 0.275 |
| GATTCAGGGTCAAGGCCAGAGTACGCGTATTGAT | THRa homodimer (NR concentration 90 nM) | 2 |

input: Param readout= PBM binding z-score; system= THRa homodimer (NR concentration 90 nM); entry= `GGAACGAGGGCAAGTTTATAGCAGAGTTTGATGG` ; returns value.
output: 0.0695

input: Param readout= PBM binding z-score; system= THRa homodimer (NR concentration 90 nM); entry= `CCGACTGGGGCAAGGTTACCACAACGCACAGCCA` ; returns value.
output: 0.612

###

Tested on: RARg homodimer (NR concentration 270 nM)
methodDescription: PBM binding z-score (relative to random genomic background probes); higher = stronger binding; sequences stand for … in GC…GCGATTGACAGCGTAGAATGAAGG
Would you mind labelling by PBM binding z-score? At or over 4 is MET, under is NOT MET.

input: Hi team, for `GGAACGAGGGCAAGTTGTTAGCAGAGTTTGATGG` , is the recorded PBM binding z-score at or above 4?
output: NOT MET

input: Hi team, for `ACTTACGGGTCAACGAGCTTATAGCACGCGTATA` , is the recorded PBM binding z-score at or above 4?
output: MET

input: Hi team, for `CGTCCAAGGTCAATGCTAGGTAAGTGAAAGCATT` , is the recorded PBM binding z-score at or above 4?
output: MET

input: Hi team, for `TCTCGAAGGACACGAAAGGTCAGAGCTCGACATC` , is the recorded PBM binding z-score at or above 4?
output: MET

input: Hi team, for `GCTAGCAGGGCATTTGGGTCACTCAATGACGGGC` , is the recorded PBM binding z-score at or above 4?
output: NOT MET

input: Hi team, for `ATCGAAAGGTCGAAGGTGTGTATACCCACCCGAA` , is the recorded PBM binding z-score at or above 4?
output: NOT MET

###

Tested on: PXR:RXRa (NR concentration 270 nM, RXRa partner concentration 90 nM)
methodDescription: PBM binding z-score (relative to random genomic background probes); higher = stronger binding; sequences stand for … in GC…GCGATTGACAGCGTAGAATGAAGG
Some sequences, each annotated with its measured PBM binding z-score.
Note: the reply should be a number with no unit written.

| macromoleculeSequence | testedSystem | measured |
| --- | --- | --- |
| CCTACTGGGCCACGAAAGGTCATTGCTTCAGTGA | PXR:RXRa (NR concentration 270 nM, RXRa partner concentration 90 nM) | 5.56 |
| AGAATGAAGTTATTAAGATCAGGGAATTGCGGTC | PXR:RXRa (NR concentration 270 nM, RXRa partner concentration 90 nM) | -0.219 |
| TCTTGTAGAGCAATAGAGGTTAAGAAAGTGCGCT | PXR:RXRa (NR concentration 270 nM, RXRa partner concentration 90 nM) | 2.73 |

input: Param readout= PBM binding z-score; system= PXR:RXRa (NR concentration 270 nM, RXRa partner concentration 90 nM); entry= `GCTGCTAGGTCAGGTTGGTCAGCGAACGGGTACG` ; returns value.
output: 0.281

input: Param readout= PBM binding z-score; system= PXR:RXRa (NR concentration 270 nM, RXRa partner concentration 90 nM); entry= `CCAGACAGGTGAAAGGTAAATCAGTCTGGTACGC` ; returns value.
output: 0.697
